The reported measurements were obtained from the supplement of paper PMC11061612.

# System: SK-CO-1 (Colorectal Carcinoma)
# assay_notes: combination Emax (second highest fraction inhibited in the dose matrix, 72 h); higher = more inhibition; extreme values may be limits of the assay

{"compound": "Cc1cc2ncnn2cc1Nc1ncc2c(n1)n(C1CCOCC1)c(=O)n2C [AZD7648] + CN(C)CCCOc1ccc(-c2ccc3ncc4c(c3c2)n(C2CCOCC2)c(=O)n4C)cn1 [AZD0156] (first compound max 10 µM, 7x7, partner max 1 µM)", "combination Emax": 0.309}
{"compound": "CN(CCO)CC[C@H](CSc1ccccc1)Nc1ccc(S(=O)(=O)NC(=O)c2ccc(N3CCC([C@@H](O)c4ccccc4-c4ccc(Cl)cc4)CC3)cc2)cc1S(=O)(=O)C(F)(F)F [AZD4320] + CC(=O)O[C@H]1C(=O)[C@@]2(C)[C@H]([C@H](OC(=O)c3ccccc3)[C@]3(O)C[C@H](OC(=O)[C@H](O)[C@@H](NC(=O)c4ccccc4)c4ccccc4)C(C)=C1C3(C)C)[C@]1(OC(C)=O)CO[C@@H]1C[C@@H]2O [Paclitaxel] (first compound max 1 µM, 7x7, partner max 3 µM)", "combination Emax": 0.972}
{"compound": "CS(=O)(=O)CCNCc1ccc(-c2ccc3ncnc(Nc4ccc(OCc5cccc(F)c5)c(Cl)c4)c3c2)o1 [Lapatinib] + C[C@@H](Oc1cc(-c2cnn(C3CCNCC3)c2)cnc1N)c1c(Cl)ccc(F)c1Cl [Crizotinib] (first compound max 10 µM, 7x7, partner max 10 µM)", "combination Emax": 0.94}
{"compound": "CCN(CCO)CCCOc1ccc2c(Nc3cc(CC(=O)Nc4cccc(F)c4)[nH]n3)ncnc2c1 [AZD2811] + C=CCn1c(=O)c2cnc(Nc3ccc(N4CCN(C)CC4)cc3)nc2n1-c1cccc(C(C)(C)O)n1 [AZD1775] (first compound max 1 µM, partner max 1 µM)", "combination Emax": 0.674}

* * *

# Tested on: MS-1 (Small Cell Lung Carcinoma)
# assay_notes: Bliss excess, mean over the matrix (fraction); higher = more synergy
We use 0.02 as the dividing line for Bliss excess: on or above the line is met, below is not met.

{"molecule": "Cc1c2c(nn1C)CSCc1cc(n(C)n1)CSc1cc(c3ccccc3c1)OCCCc1c(C(=O)O)n(C)c3c-2c(Cl)ccc13 [AZD5991] + CC1(C)CCC(CN2CCN(c3ccc(C(=O)NS(=O)(=O)c4ccc(NCC5CCOCC5)c([N+](=O)[O-])c4)c(Oc4cnc5[nH]ccc5c4)c3)CC2)=C(c2ccc(Cl)cc2)C1 [Venetoclax] (first compound max 1 µM, 7x7, partner max 1 µM)", "answer_label": "not met"}
{"molecule": "C=CCn1c(=O)c2cnc(Nc3ccc(N4CCN(C)CC4)cc3)nc2n1-c1cccc(C(C)(C)O)n1 [AZD1775] + C1CN(CCC1(C(=O)N[C@@H](CCO)C2=CC=C(C=C2)Cl)N)C3=NC=NC4=C3C=CN4 [Capivasertib] (first compound max 3 µM, partner max 3 µM)", "answer_label": "met"}
{"molecule": "CN(CCO)CC[C@H](CSc1ccccc1)Nc1ccc(S(=O)(=O)NC(=O)c2ccc(N3CCC([C@@H](O)c4ccccc4-c4ccc(Cl)cc4)CC3)cc2)cc1S(=O)(=O)C(F)(F)F [AZD4320] + CC(=O)O[C@H]1C(=O)[C@@]2(C)[C@H]([C@H](OC(=O)c3ccccc3)[C@]3(O)C[C@H](OC(=O)[C@H](O)[C@@H](NC(=O)c4ccccc4)c4ccccc4)C(C)=C1C3(C)C)[C@]1(OC(C)=O)CO[C@@H]1C[C@@H]2O [Paclitaxel] (first compound max 1 µM, 7x7, partner max 3 µM)", "answer_label": "met"}
{"molecule": "COc1nnc2ccc(N3CCC(c4ccc(OCCN5CCN(C)C(=O)[C@H]5C)cc4)CC3)nn12 [AZD5153] + CC1(C)CCC(CN2CCN(c3ccc(C(=O)NS(=O)(=O)c4ccc(NCC5CCOCC5)c([N+](=O)[O-])c4)c(Oc4cnc5[nH]ccc5c4)c3)CC2)=C(c2ccc(Cl)cc2)C1 [Venetoclax] (first compound max 1 µM, 7x7, partner max 1 µM)", "answer_label": "not met"}
{"molecule": "CN(CCO)CC[C@H](CSc1ccccc1)Nc1ccc(S(=O)(=O)NC(=O)c2ccc(N3CCC([C@@H](O)c4ccccc4-c4ccc(Cl)cc4)CC3)cc2)cc1S(=O)(=O)C(F)(F)F [AZD4320] + CS(=O)(=O)CCNCc1ccc(-c2ccc3ncnc(Nc4ccc(OCc5cccc(F)c5)c(Cl)c4)c3c2)o1 [Lapatinib] (first compound max 1 µM, 7x7, partner max 10 µM)", "answer_label": "met"}
{"molecule": "COc1cccc(OCCCN)c1-c1cc(Nc2cnc(C#N)cn2)n[nH]1 [Prexasertib] + CCc1c2c(nc3ccc(O)cc13)-c1cc3c(c(=O)n1C2)COC(=O)[C@]3(O)CC [SN-38] (first compound max 1 µM, 7x7, partner max 0.3 µM)", "answer_label": "not met"}

* * *

# Tested on: T84 (Colorectal Carcinoma)
# assay_notes: combination Emax (second highest fraction inhibited in the dose matrix, 72 h); higher = more inhibition; extreme values may be limits of the assay
The molecules listed here are annotated with their combination Emax.

{"molecule": "COc1nnc2ccc(N3CCC(c4ccc(OCCN5CCN(C)C(=O)[C@H]5C)cc4)CC3)nn12 [AZD5153] + Cn1cnc2c(F)c(Nc3ccc(Br)cc3Cl)c(C(=O)NOCCO)cc21 [Selumetinib] (first compound max 1 µM, 7x7, partner max 10 µM)", "combination Emax": 0.483}
{"molecule": "Cc1nc(-c2cn3c(n2)-c2ccc(-c4cnn(C(C)(C)C(N)=O)c4)cc2OCC3)n(C(C)C)n1 [Taselisib] + O=C(Nc1ccc2[nH]nc(-c3ccncc3)c2c1)[C@@H]1CCN(CC(=O)N2CCN(c3ccc(-c4ncccn4)cc3)CC2)C1 [SCH772984] (first compound max 10 µM, 7x7, partner max 5 µM)", "combination Emax": 0.96}
{"molecule": "CC1(C)CCC(CN2CCN(c3ccc(C(=O)NS(=O)(=O)c4ccc(NCC5CCOCC5)c([N+](=O)[O-])c4)c(Oc4cnc5[nH]ccc5c4)c3)CC2)=C(c2ccc(Cl)cc2)C1 [Venetoclax] + CS(=O)(=O)CCNCc1ccc(-c2ccc3ncnc(Nc4ccc(OCc5cccc(F)c5)c(Cl)c4)c3c2)o1 [Lapatinib] (first compound max 1 µM, 7x7, partner max 10 µM)", "combination Emax": 0.25}
{"molecule": "C=CCn1c(=O)c2cnc(Nc3ccc(N4CCN(C)CC4)cc3)nc2n1-c1cccc(C(C)(C)O)n1 [AZD1775] + C1CN(CCC1(C(=O)N[C@@H](CCO)C2=CC=C(C=C2)Cl)N)C3=NC=NC4=C3C=CN4 [Capivasertib] (first compound max 3 µM, partner max 3 µM)", "combination Emax": 0.785}

* * *

# Tested on: BxPC-3 (Pancreatic Carcinoma)
# assay_notes: combination Emax (second highest fraction inhibited in the dose matrix, 72 h); higher = more inhibition; extreme values may be limits of the assay

{"compound": "CC1(C)CCC(CN2CCN(c3ccc(C(=O)NS(=O)(=O)c4ccc(NCC5CCOCC5)c([N+](=O)[O-])c4)c(Oc4cnc5[nH]ccc5c4)c3)CC2)=C(c2ccc(Cl)cc2)C1 [Venetoclax] + C[C@@H](Nc1cc(F)cc(F)c1)c1cc(C(=O)N(C)C)cc2c(=O)cc(N3CCOCC3)oc12 [AZD8186] (first compound max 1 µM, 7x7, partner max 3 µM)", "combination Emax": 0.245}
{"compound": "C[C@@H]1COCCN1c1cc(C2([S@](C)(=N)=O)CC2)nc(-c2ccnc3[nH]ccc23)n1 [AZD6738] + C1CC(C1)(C(=O)[O-])C(=O)[O-].N.N.[Pt+2] [Carboplatin] (first compound max 10 µM, 7x7, partner max 10 µM)", "combination Emax": 0.349}
{"compound": "C[C@@H](Oc1cc(-c2cnn(C3CCNCC3)c2)cnc1N)c1c(Cl)ccc(F)c1Cl [Crizotinib] + Cn1cnc2c(F)c(Nc3ccc(Br)cc3Cl)c(C(=O)NOCCO)cc21 [Selumetinib] (first compound max 10 µM, 7x7, partner max 10 µM)", "combination Emax": 0.439}
{"compound": "COc1nnc2ccc(N3CCC(c4ccc(OCCN5CCN(C)C(=O)[C@H]5C)cc4)CC3)nn12 [AZD5153] + C=CCn1c(=O)c2cnc(Nc3ccc(N4CCN(C)CC4)cc3)nc2n1-c1cccc(C(C)(C)O)n1 [AZD1775] (first compound max 1 µM, partner max 1 µM)", "combination Emax": 0.529}

* * *

# System: SUP-M2 (T-Cell Non-Hodgkin's Lymphoma)
# assay_notes: Bliss excess, mean over the matrix (fraction); higher = more synergy
measured_parameter: Bliss excess

{"molecule": "Cc1c2c(nn1C)CSCc1cc(n(C)n1)CSc1cc(c3ccccc3c1)OCCCc1c(C(=O)O)n(C)c3c-2c(Cl)ccc13 [AZD5991] + C1CN(CCC1(C(=O)N[C@@H](CCO)C2=CC=C(C=C2)Cl)N)C3=NC=NC4=C3C=CN4 [Capivasertib] (first compound max 1 µM, 7x7, partner max 3 µM)", "tgt": "SUP-M2 (T-Cell Non-Hodgkin's Lymphoma)", "measured_value": -0.0079}
{"molecule": "CC(=O)c1c(C)c2cnc(Nc3ccc(N4CCNCC4)cn3)nc2n(C2CCCC2)c1=O [Palbociclib] + Cn1cnc2c(F)c(Nc3ccc(Br)cc3Cl)c(C(=O)NOCCO)cc21 [Selumetinib] (first compound max 10 µM, 7x7, partner max 10 µM)", "tgt": "SUP-M2 (T-Cell Non-Hodgkin's Lymphoma)", "measured_value": 0.0342}
{"molecule": "CC1(C)CCC(CN2CCN(c3ccc(C(=O)NS(=O)(=O)c4ccc(NCC5CCOCC5)c([N+](=O)[O-])c4)c(Oc4cnc5[nH]ccc5c4)c3)CC2)=C(c2ccc(Cl)cc2)C1 [Venetoclax] + CN(C)CCCOc1ccc(-c2ccc3ncc4c(c3c2)n(C2CCOCC2)c(=O)n4C)cn1 [AZD0156] (first compound max 1 µM, 7x7, partner max 1 µM)", "tgt": "SUP-M2 (T-Cell Non-Hodgkin's Lymphoma)", "measured_value": 0.0191}
{"molecule": "CN(CCO)CC[C@H](CSc1ccccc1)Nc1ccc(S(=O)(=O)NC(=O)c2ccc(N3CCC([C@@H](O)c4ccccc4-c4ccc(Cl)cc4)CC3)cc2)cc1S(=O)(=O)C(F)(F)F [AZD4320] + C[C@@H]1COCCN1C2=NC(=NC(=C2)C3(CC3)[S@](=N)(=O)C)C4=C5C=CNC5=NC=C4 [AZD6738] (first compound max 1 µM, 7x7, partner max 10 µM)", "tgt": "SUP-M2 (T-Cell Non-Hodgkin's Lymphoma)", "measured_value": -0.0128}
{"molecule": "COc1nnc2ccc(N3CCC(c4ccc(OCCN5CCN(C)C(=O)[C@H]5C)cc4)CC3)nn12 [AZD5153] + CCN(CCO)CCCOc1ccc2c(Nc3cc(CC(=O)Nc4cccc(F)c4)[nH]n3)ncnc2c1 [AZD2811] (first compound max 1 µM, 7x7, partner max 1 µM)", "tgt": "SUP-M2 (T-Cell Non-Hodgkin's Lymphoma)", "measured_value": -0.0132}
{"molecule": "CS(=O)(=O)CCNCc1ccc(-c2ccc3ncnc(Nc4ccc(OCc5cccc(F)c5)c(Cl)c4)c3c2)o1 [Lapatinib] + C[C@@H](Oc1cc(-c2cnn(C3CCNCC3)c2)cnc1N)c1c(Cl)ccc(F)c1Cl [Crizotinib] (first compound max 10 µM, 7x7, partner max 10 µM)", "tgt": "SUP-M2 (T-Cell Non-Hodgkin's Lymphoma)", "measured_value": 0.0299}
{"molecule": "COc1nnc2ccc(N3CCC(c4ccc(OCCN5CCN(C)C(=O)[C@H]5C)cc4)CC3)nn12 [AZD5153] + CN(CC[C@H](CSC1=CC=CC=C1)NC2=C(C=C(C=C2)S(=O)(=O)NC(=O)C3=CC=C(C=C3)N4CCC(CC4)[C@H](C5=CC=CC=C5C6=CC=C(C=C6)Cl)O)S(=O)(=O)C(F)(F)F)CCO [AZD4320] (first compound max 1 µM, 7x7, partner max 1 µM)", "tgt": "SUP-M2 (T-Cell Non-Hodgkin's Lymphoma)", "measured_value": -0.0028}
